The measured values listed here are drawn from patent US7183276B2.

experimental.readout: melting point

INSERT INTO results (molecule, experimental_readout, reading) VALUES
  ('Cc1cc(C)n(-c2nc(-c3ccc(Cl)cc3)c(CCC(=O)N3CCN(CC4CCN(C)CC4)CC3)o2)n1', 'melting point', '126 to 127 °C'),
  ('N#Cc1ccc(NC(=O)CCc2oc(-n3cnc4ccccc43)nc2-c2ccc(Cl)cc2)cc1', 'melting point', '216 to 217 °C');

query: Name the recorded melting point for Cc1ccc(Sc2nc(-c3ccc(Cl)cc3)c(CCC(N)=O)o2)cc1 .
result: 155 to 156 °C

query: What value of melting point has been reported for the following molecule? CCOP(=O)(Cc1ccc(NC(=O)CCc2oc(Cl)nc2-c2ccc(Cl)cc2)cc1)OCC
result: 137 to 138 °C

query: Request the reported melting point associated with O=C(CCc1oc(-n2cnc3ccccc32)nc1-c1ccc(Cl)cc1)Nc1ccc(CN2CCCCC2)cc1
result: 194 to 195 °C

query: Requested read-out: melting point. Entry: O=C(CCc1oc(-n2cnc3ccccc32)nc1-c1ccc(Cl)cc1)N1CCC(CO)CC1
result: 101 to 102 °C

query: Would you mind telling me what melting point value was observed for COc1ccc(NC(=O)CCc2oc(-n3cnc4ccccc43)nc2-c2ccc(Cl)cc2)cc1 ?
result: 240 to 241 °C

query: Sample O=C(CCc1oc(-n2cnc3ccccc32)nc1-c1ccc(Cl)cc1)Nc1ccc(OC(F)(F)F)cc1 — what was its melting point?
result: 174 to 175 °C

query: # lookup: melting point of CCOP(=O)(Cc1ccc(NC(=O)/C=C/c2sc(-n3cnc4ccccc43)nc2-c2ccccc2)cc1)OCC
result: 229 to 230 °C

query: Any idea what melting point was measured for CCOP(=O)(Cc1ccc(NC(=O)CCc2sc(NC(=O)NCc3ccccc3)nc2-c2ccc(Cl)cc2)cc1)OCC ?
result: 144 to 145 °C

query: Reported melting point for CCOP(=O)(Cc1ccc(NC(=O)CCc2sc(-n3cnc4ccccc43)nc2-c2ccccc2)cc1)OCC : what is it?
result: 142 to 143 °C

query: Please look up its melting point: COC(=O)c1ccc(NC(=O)CCc2oc(-n3cnc4ccccc43)nc2-c2ccc(Cl)cc2)cc1
result: 249 to 250 °C

query: Recorded melting point of O=C(CCc1oc(-n2cnc3ccccc32)nc1-c1ccc(Cl)cc1)Nc1ccc(C2CCCCC2)cc1 , please.
result: 216 to 217 °C

query: # query: melting point of entry CCOP(=O)(Cc1ccc(NC(=O)/C=C/c2sc(-n3cnc4ccccc43)nc2C(C)C)cc1)OCC
result: 198 to 199 °C

query: Given the molecule CCOP(=O)(Cc1ccc(NC(=O)Cc2oc(-c3ccccc3)nc2-c2ccc(Cl)cc2)cc1)OCC , what is its reported melting point?
result: 173 to 174 °C

query: What value of melting point has been reported for the following molecule? CCOP(=O)(Cc1ccc(NC(=O)CCCc2oc(N3CCN(n4c(=O)[nH]c5ccccc54)CC3)nc2-c2ccc(Cl)cc2)cc1)OCC
result: 205 to 209 °C

query: Please look up its melting point: O=C(CCc1oc(-n2cnc3ccccc32)nc1-c1ccc(Cl)cc1)Nc1ccc(C(F)(F)F)cc1
result: 259 to 263 °C

query: Requested field: melting point. Item: CCOP(=O)(Cc1ccc(NC(=O)CCCc2oc(-n3cnc4ccccc43)nc2-c2ccc(Cl)cc2)c(C)c1)OCC
result: 118 to 119 °C

---

melting point overview

Worked cases, answers included:
INSERT INTO assay_data (compound, reading) VALUES
  ('O=C(CCc1oc(-c2ccccc2)nc1-c1ccc(Cl)cc1)Nc1ccc(C(=O)O)cc1', '243 to 244 °C'),
  ('CCOP(=O)(Cc1ccc(NC(=O)CCc2sc(NC(=S)NC(=O)c3ccccc3)nc2-c2ccc(Cl)cc2)cc1)OCC', '208 to 209 °C'),
  ('Nc1nc(-c2ccc(Cl)cc2)c(CCC(=O)N2CCS(=O)(=O)CC2)s1 [Example 227B]', '220 to 222 °C'),
  ('COc1ccccc1NC(=O)CCc1oc(-n2cnc3ccccc32)nc1-c1ccc(Cl)cc1', '194 to 195 °C'),
  ('NC(=O)CCc1oc(-c2cccs2)nc1-c1ccc(Cl)cc1', '226 to 227 °C'),
  ('N#Cc1ccccc1NC(=O)CCc1oc(-n2cnc3ccccc32)nc1-c1ccc(Cl)cc1', '186 to 187 °C');

query: Please report the recorded melting point for O=C(CCc1oc(-n2cnc3ccccc32)nc1-c1ccc(Cl)cc1)NCc1ccccc1Cl .
result: 222 to 223 °C

query: // query melting point value for entry O=C(CCc1oc(-n2cnc3ccccc32)nc1-c1ccc(Cl)cc1)N1CCC(O)CC1
result: 182 to 183 °C

---

experimental.readout: melting point

INSERT INTO results (molecule, reading) VALUES
  ('CCOP(=O)(Cc1ccc(NC(=O)CCc2sc(NC(=O)Nc3ccccc3)nc2-c2ccc(Cl)cc2)cc1)OCC', '175 to 176 °C');

query: melting point for O=C(CCc1oc(-n2cnc3ccccc32)nc1-c1ccc(Cl)cc1)N1CCSC1 ?
result: 125 to 126 °C

query: Any idea what its melting point is? The compound is CNS(=O)(=O)Cc1ccc(NC(=O)CCc2oc(-n3ccnc3)nc2-c2ccc(Cl)cc2)cc1
result: 224 to 225 °C

query: // lookup melting point for CCOP(=O)(Cc1ccc(NC(=O)CCCCc2sc(-n3cnc4ccccc43)nc2-c2ccc(Cl)cc2)cc1)OCC
result: 168 to 169 °C

query: Recorded melting point for CCOP(=O)(Cc1ccc(NC(=O)CCc2oc(Sc3ccccn3)nc2-c2ccc(Cl)cc2)cc1)OCC , please?
result: 146 to 147 °C

query: I am curious: what melting point value has been reported for CCOP(=O)(Cc1ccc(NC(=O)CCCc2sc(-n3cnc4ccccc43)nc2-c2ccc(Cl)cc2)cc1)OCC ?
result: 140 to 141 °C

query: Could you share which melting point value was measured for CCOP(=O)(Cc1ccc(NC(=O)CCc2sc(NC(=S)NCc3ccccc3)nc2-c2ccc(Cl)cc2)cc1)OCC ?
result: 202 to 203 °C

query: Would you mind telling me what melting point value was observed for Cc1ccc(CNC(=O)CCc2sc(-n3cnc4ccccc43)nc2-c2ccc(Cl)cc2)cc1 ?
result: 191 to 192 °C

---

The following compounds are listed with their measured melting point values.

query: May I ask what melting point has been recorded for CCOP(=O)(Cc1ccc(NC(=O)CCc2oc(NCc3ccccc3)nc2-c2ccc(Cl)cc2)cc1)OCC ?
result: 156 to 157 °C

query: Entry O=C(CCc1oc(-n2cnc3ccccc32)nc1-c1ccc(Cl)cc1)NCCc1ccccc1 has what melting point?
result: 164 to 165 °C

query: Bench note: what melting point did CCOP(=O)(OCC)C(F)(F)c1ccc(NC(=O)CCc2oc(-n3cnc4ccccc43)nc2-c2ccc(Cl)cc2)cc1 show?
result: 155 to 156 °C

query: What does the record list as melting point for O=C(CCc1oc(-n2cnc3ccccc32)nc1-c1ccc(Cl)cc1)NCc1ccc(Cl)cc1F ?
result: 189 to 191 °C

query: If you can, please state the reported melting point value of NC(=O)CCc1oc(Sc2ccccn2)nc1-c1ccc(Cl)cc1 .
result: 162 to 163 °C

query: Returns the measured melting point for the input compound. Input: NC(=O)CCc1oc(N2CCOCC2)nc1-c1ccc(Cl)cc1
result: 180 to 181 °C

query: Data request, read-out melting point, for CCOP(=O)(Cc1ccc(NC(=O)CCc2sc(-c3ccccc3)nc2-c2ccc(Cl)cc2)cc1)OCC
result: 164 to 165 °C

query: I would be grateful if you could share the reported melting point for O=C(O)Cc1ccc(NC(=O)CCc2oc(-n3cnc4ccccc43)nc2-c2ccc(Cl)cc2)cc1 .
result: 247 to 248 °C

---

Listed here are compounds together with their documented melting point.

Solved cases (3 shown):
INSERT INTO measurements (compound, reading) VALUES
  ('CCOP(=O)(Cc1ccc(NC(=O)CCc2ocnc2-c2ccc(Cl)cc2)cc1)OCC', '130 to 131 °C'),
  ('NC(=O)c1ccc(NC(=O)/C=C/c2oc(-c3ccccc3)nc2-c2ccc(Cl)cc2)cc1 [Example 68]', '274 to 275 °C'),
  ('COc1ccc(-c2nc(-n3cnc4ccccc43)oc2CCC(=O)N2CCN(CC3CCCN(C)C3)CC2)cc1 (centres unmarked) [Example 252]', '151 to 152 °C');

query: Param item = CCOP(=O)(Cc1ccc(NC(=O)CCc2oc(-c3ccc(F)cc3)nc2-c2ccc(Cl)cc2)cc1)OCC ; retrieve measured melting point.
result: 148 to 149 °C

query: Name the recorded melting point for Cc1ncn(-c2nc(-c3ccc(Cl)cc3)c(CCC(N)=O)o2)c1C [Example 19] .
result: 232 to 233 °C

query: Consider the compound shown here: NC(=O)CCCc1oc(-c2ccccc2)nc1-c1ccc(Cl)cc1 [Example 52] What is its recorded melting point?
result: 168 to 169 °C

query: What value of melting point has been reported for the following compound? CCOP(=O)(Cc1ccc(NC(=O)CCc2oc(N3CCOCC3)nc2-c2ccc(Cl)cc2)cc1)OCC
result: 186 to 187 °C

query: # get_value(readout='melting point', item= CCOP(=O)(Cc1ccc(NC(=O)CCc2oc(-n3cnc4ccccc43)nc2-c2cccc(Cl)c2)cc1)OCC )
result: 98 to 99 °C
